test.target: UniProtKB P00803
Sequence (P00803 whole entry): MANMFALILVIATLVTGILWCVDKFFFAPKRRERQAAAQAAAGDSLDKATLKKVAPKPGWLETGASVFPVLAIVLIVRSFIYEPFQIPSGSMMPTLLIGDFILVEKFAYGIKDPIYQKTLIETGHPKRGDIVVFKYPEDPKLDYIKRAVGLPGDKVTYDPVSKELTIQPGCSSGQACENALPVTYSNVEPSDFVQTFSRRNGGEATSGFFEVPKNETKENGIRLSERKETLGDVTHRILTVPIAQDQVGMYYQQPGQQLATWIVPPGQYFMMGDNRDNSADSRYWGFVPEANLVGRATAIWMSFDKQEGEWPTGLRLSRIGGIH
recorded.endpoint: IC50 (nM)
Please respond with the number in nM and leave the unit unwritten.

QUERY: Look up and report measured IC50 (UniProtKB P00803) for the following compound: "C[C@@H](O)[C@H]1C(=O)N2C(C(=O)O)=CS[C@@H]12"
RESULT: 180
